Source: patent US7795444B2

Molecular target: HPTPβ (Homo sapiens)
Sequence (P23467 23-1997): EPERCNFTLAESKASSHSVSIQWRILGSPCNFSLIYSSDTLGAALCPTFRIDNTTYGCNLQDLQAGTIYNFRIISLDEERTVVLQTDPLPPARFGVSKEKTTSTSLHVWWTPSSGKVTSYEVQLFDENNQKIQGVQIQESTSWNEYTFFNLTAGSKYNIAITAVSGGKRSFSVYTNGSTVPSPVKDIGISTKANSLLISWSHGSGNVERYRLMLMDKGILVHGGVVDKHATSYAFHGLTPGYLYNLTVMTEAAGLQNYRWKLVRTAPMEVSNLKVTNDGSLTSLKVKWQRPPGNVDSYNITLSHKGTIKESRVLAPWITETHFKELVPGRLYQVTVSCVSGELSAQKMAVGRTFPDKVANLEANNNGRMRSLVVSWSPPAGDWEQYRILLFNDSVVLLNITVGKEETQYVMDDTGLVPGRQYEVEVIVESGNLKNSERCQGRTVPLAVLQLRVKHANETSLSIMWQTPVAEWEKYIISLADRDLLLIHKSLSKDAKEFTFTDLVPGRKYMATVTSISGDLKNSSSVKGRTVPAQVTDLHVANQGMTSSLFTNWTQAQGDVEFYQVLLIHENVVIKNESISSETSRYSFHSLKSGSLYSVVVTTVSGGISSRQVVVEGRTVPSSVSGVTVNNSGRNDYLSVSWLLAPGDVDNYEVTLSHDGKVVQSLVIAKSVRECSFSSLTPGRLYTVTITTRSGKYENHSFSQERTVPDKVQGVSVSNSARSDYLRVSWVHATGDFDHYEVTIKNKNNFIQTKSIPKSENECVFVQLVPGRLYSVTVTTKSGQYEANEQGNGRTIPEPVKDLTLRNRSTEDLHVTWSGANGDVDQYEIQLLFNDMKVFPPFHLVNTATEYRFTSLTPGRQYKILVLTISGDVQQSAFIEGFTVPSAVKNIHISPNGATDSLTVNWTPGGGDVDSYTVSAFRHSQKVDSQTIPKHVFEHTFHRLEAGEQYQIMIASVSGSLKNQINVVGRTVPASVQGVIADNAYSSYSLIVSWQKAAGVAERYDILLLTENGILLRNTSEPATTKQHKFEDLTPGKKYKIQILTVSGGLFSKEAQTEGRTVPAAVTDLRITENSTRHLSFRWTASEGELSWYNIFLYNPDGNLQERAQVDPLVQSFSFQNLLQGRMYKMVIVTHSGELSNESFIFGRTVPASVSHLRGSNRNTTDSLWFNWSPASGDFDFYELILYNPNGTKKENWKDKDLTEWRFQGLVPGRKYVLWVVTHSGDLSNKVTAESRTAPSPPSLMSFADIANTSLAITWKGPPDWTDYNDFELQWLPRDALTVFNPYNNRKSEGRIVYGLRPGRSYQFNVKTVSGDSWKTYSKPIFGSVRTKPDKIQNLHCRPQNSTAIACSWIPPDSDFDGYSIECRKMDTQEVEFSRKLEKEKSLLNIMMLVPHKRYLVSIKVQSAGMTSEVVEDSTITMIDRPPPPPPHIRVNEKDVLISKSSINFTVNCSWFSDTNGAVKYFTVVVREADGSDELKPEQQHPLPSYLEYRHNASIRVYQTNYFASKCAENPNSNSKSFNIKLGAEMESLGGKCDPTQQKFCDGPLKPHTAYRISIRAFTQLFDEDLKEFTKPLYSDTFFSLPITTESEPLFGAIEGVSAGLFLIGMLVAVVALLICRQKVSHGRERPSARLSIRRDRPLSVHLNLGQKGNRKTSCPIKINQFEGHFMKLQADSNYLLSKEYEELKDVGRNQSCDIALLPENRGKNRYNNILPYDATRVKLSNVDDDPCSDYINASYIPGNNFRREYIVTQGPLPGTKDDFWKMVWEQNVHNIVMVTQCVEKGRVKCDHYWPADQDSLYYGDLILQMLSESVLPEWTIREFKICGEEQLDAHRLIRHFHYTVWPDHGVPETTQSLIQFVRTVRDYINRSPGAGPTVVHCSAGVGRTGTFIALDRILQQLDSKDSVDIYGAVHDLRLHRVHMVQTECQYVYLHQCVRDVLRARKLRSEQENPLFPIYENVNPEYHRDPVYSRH
pIC50: −log10 of the molar value.
measured quantity: pIC50

Example entries begin here.
INSERT INTO measurements (smiles_input, measured_quantity, readout_number) VALUES
  ('CCc1csc([C@H](Cc2ccc(NS(=O)(=O)O)cc2)NC(=O)c2ccc3c(c2)OCO3)n1', 'pIC50', 7.38),
  ('CCc1csc([C@H](Cc2ccc(NS(=O)(=O)O)cc2)NC(=O)Cc2cccc(OC)c2OC)n1', 'pIC50', 7.43);

P. CCc1csc([C@H](Cc2ccc(NS(=O)(=O)O)cc2)NC(=O)Cc2cccc(F)c2F)n1
Q. CCc1csc([C@H](Cc2ccc(NS(=O)(=O)O)cc2)NC(=O)CCc2ccc(OC)cc2)n1
R. CCc1csc([C@H](Cc2ccc(NS(=O)(=O)O)cc2)NC(=O)Cc2ccc(F)c(F)c2)n1
Task item: # sort list by recorded pIC50, greatest to least Provide your answer as the labels ordered per the instruction.
Reply: Q, P, R
(Q: 8.22, P: 7.55, R: 7.12)

====

Target protein (sequence): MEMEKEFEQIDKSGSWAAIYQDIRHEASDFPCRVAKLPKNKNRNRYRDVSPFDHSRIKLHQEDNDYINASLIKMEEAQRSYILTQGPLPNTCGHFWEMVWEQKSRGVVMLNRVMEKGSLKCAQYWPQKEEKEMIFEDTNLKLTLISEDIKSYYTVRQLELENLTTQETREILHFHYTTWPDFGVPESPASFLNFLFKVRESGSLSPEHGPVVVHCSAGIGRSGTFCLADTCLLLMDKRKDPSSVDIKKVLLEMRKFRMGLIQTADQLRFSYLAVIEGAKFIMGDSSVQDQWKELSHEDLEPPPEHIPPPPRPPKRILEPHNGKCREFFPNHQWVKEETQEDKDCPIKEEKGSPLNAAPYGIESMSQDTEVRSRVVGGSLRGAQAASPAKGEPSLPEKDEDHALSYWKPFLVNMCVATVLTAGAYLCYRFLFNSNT
measured quantity: IC50 (µM)

INSERT INTO measurements (smiles_input, readout_number) VALUES
  ('CCc1csc([C@H](Cc2ccc(NS(=O)(=O)O)cc2)NC(=O)c2ccc3c(c2)OCO3)n1', 19);

a. CCc1csc([C@H](Cc2ccc(NS(=O)(=O)O)cc2)NC(=O)Cc2cccc(OC)c2OC)n1
b. CCc1csc([C@H](Cc2ccc(NS(=O)(=O)O)cc2)NC(=O)Cc2cccc(Cl)c2)n1
c. CCc1csc([C@H](Cc2ccc(NS(=O)(=O)O)cc2)NC(=O)Cn2cc(C)c(=O)[nH]c2=O)n1
Task item: Please list these in order of increasing IC50. Thank you! Quick reminder: the answer is the labels in the order asked.
Reply: c, b, a
(c: 0.254 µM, b: 13.6 µM, a: 25.4 µM)

I. CCc1csc([C@H](Cc2ccc(NS(=O)(=O)O)cc2)NC(=O)CCc2cccc(OC)c2)n1
II. CCc1csc([C@H](Cc2ccc(NS(=O)(=O)O)cc2)NC(=O)CCc2ccccc2)n1
III. CCc1csc([C@H](Cc2ccc(NS(=O)(=O)O)cc2)NC(=O)Cc2cccc(F)c2F)n1
Task item: // smallest IC50 at index 0, largest at the end The reply should contain the labels ordered as requested.
Reply: III, II, I
